study-target: human FLT3 (hFLT3) (human) (UniProt P36888)
Sequence (P36888 27-543 limits assumed): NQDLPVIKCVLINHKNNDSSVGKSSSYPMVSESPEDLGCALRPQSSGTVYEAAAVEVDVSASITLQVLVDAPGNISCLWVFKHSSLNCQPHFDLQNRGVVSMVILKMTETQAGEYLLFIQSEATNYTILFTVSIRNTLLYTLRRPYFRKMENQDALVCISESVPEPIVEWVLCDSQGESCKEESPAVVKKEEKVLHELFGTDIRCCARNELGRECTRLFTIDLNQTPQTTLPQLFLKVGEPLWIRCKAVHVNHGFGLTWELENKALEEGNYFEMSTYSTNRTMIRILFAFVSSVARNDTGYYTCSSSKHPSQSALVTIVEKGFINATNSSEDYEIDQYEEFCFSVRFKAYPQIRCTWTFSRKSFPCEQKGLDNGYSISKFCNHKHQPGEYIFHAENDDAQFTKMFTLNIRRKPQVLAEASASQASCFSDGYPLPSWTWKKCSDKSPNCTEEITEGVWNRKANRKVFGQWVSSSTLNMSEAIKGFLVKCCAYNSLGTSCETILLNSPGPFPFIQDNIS
assay-name: SPR, Table 6, scFv format; set-up and antigen species not described
assay-endpoint: koff (s⁻¹)
Write the value in s⁻¹ as a bare number.

Take a look at these entries with their results.
{"binder": "P1B4 (scFv format) (scFv, part only; not given: linker, domain order, tags, V domains shown, not shown: another chain or arm of the molecule; small tags and cut ends) VH: QVQLVQSGAEVKKPGSSVKVSCKASGGVFSRYALSWVRQAPGQGLEWMGGIIPMLGFANYAQKFQGRVTITADESTSTAYMELSSLRSEDTAVYYCATLDFGALDYWGQGTLVTVSS VL: EIVLTQSPGTLSLSPGERATLSCRASQSVPNEQLAWYQQKPGQAPRLLIYDASSRATGIPDRFSGSGSGTDFTLTISRLEPEDFAVYYCQQYGSPPLTFGQGTKVEIK", "koff / s⁻¹": 0.00327}
{"binder": "P5F7 (scFv format) (scFv, from a related filing, part only) scFv: EVQLLESGGGLVQPGGSLRLSCAASGFTFSSYAMNWVRQAPGKGLEWVSSISGGGRSTYYADSVKGRFTISRDNSKNTLYLQMNSLRAEDTAVYYCARDLSPSDVGWGYGFDIWGQGTLVTVSSGGGGSGGGGSGGGGSEIVLTQSPATLSLSPGERATLSCRASQSVSSNLAWYQQKPGQAPRLLIYDTFTRATGIPARFSGSGSGTDFTLTISRLEPEDFAVYYCQQYGSSPPTFGQGTRLEIK", "koff / s⁻¹": 0.000197}

Could you tell me which koff is on file for P9F1 (scFv format) (scFv, part only; not given: linker, domain order, tags, V domains shown, not shown: another chain or arm of the molecule; small tags and cut ends) VH: EVQLLESGGGLVQPGGSLRLSCAASGFIFSSFAMSWVRQAPGKGLEWVSDISGSGASTYYADSVKGRFTISRDNSKNTLYLQMNSLRAEDTAVYYCASASGGSGSYWPYMDPWGQGTLVTVSS VL: QSVLTQPPSASGTPGQRVTISCSGSGSNIGSNYVYWYQQLPGTAPKLLIYRNNQRPSGVPDRFSGSKSGTSASLAISGLRSEDEADYYCAAWDGSLSRPVFGTGTKLTVL ?
0.0286
